- target_or_system: plasma purified human complement protein C3 (human) (UniProt P01024)
- Sequence (P01024 23-667, chain 1 of 2): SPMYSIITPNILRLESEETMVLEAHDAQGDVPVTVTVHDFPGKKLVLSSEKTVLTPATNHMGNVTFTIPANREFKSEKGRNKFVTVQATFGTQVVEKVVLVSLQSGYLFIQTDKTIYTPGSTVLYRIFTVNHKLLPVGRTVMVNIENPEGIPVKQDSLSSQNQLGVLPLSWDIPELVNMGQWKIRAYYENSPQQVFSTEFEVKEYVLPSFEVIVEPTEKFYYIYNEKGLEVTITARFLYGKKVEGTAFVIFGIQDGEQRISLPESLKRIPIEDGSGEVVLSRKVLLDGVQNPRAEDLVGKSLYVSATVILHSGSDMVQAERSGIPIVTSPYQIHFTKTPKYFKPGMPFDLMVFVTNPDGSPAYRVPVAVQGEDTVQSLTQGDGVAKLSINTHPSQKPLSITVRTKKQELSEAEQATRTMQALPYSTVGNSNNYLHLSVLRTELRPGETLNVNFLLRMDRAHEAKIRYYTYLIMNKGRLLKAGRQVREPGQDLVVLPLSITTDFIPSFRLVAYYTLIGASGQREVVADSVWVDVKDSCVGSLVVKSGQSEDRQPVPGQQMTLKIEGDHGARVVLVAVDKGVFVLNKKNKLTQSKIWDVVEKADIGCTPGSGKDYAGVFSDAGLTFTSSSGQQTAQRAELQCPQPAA
- Sequence (P01024 672-1663, chain 2 of 2): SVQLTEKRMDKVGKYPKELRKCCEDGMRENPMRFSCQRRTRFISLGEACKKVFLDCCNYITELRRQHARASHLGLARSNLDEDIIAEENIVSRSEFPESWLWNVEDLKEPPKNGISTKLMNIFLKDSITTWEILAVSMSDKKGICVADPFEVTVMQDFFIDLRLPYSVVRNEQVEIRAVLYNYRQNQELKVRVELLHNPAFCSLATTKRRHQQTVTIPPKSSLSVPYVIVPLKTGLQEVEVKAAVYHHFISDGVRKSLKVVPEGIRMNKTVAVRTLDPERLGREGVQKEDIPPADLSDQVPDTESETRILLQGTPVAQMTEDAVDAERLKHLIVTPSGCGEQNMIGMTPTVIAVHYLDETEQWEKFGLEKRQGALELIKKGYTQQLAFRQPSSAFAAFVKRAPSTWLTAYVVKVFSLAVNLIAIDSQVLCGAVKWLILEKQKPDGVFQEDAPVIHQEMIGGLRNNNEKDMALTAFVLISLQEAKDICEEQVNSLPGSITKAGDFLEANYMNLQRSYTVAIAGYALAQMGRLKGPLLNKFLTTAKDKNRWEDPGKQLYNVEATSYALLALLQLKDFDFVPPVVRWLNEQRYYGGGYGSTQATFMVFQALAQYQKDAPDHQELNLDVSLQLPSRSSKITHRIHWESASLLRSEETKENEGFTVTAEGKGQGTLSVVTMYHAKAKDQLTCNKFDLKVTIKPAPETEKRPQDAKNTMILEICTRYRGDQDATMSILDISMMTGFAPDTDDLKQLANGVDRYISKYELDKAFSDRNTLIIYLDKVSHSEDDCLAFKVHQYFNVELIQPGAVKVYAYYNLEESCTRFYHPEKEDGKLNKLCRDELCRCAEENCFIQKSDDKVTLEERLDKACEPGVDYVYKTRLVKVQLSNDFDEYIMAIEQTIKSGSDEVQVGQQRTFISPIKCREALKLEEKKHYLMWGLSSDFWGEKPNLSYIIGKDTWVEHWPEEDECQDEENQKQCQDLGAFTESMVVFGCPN
- run_description: cell-based or functional assay
property_label: EC50 hC3 cleavage (nM)
Give bare numbers, in nM.

The following binders have reported results that may help.
MTSP-1 protease domain I41A/F97S/ins97aA/C122S (enzyme) VVGGTDADEGEWPWQVSLHALGQGHACGASLISPNWLVSAAHCYIDDRGFRYSDPTQWTAFLGLHDQSQRSAPGVQERRLKRIISHPFFNDSATFDYDIALLELEKPAEYSSMVRPISLPDASHVFPAGKAIWVTGWGHTQYGGTGALILQKGEIRVINQTTCENLLPQQITPRMMCVGFLSGGVDSCQGDSGGPLSSVEADGRIFQAGVVSWGDGCAQRNKPGVYTRLPLFRDWIKENTGV: 19.8
MTSP-1 protease domain I41A/ins97aY/F99L/C122S/Q175R/Q192H (enzyme) VVGGTDADEGEWPWQVSLHALGQGHACGASLISPNWLVSAAHCYIDDRGFRYSDPTQWTAFLGLHDQSQRSAPGVQERRLKRIISHPFFNDFYTLDYDIALLELEKPAEYSSMVRPISLPDASHVFPAGKAIWVTGWGHTQYGGTGALILQKGEIRVINQTTCENLLPQRITPRMMCVGFLSGGVDSCHGDSGGPLSSVEADGRIFQAGVVSWGDGCAQRNKPGVYTRLPLFRDWIKENTGV: 14.8
MTSP-1 protease domain I41S/D96K/F97G/ins97aV/T98P/F99L/C122S/Q192V (enzyme) VVGGTDADEGEWPWQVSLHALGQGHSCGASLISPNWLVSAAHCYIDDRGFRYSDPTQWTAFLGLHDQSQRSAPGVQERRLKRIISHPFFNKGVPLDYDIALLELEKPAEYSSMVRPISLPDASHVFPAGKAIWVTGWGHTQYGGTGALILQKGEIRVINQTTCENLLPQQITPRMMCVGFLSGGVDSCVGDSGGPLSSVEADGRIFQAGVVSWGDGCAQRNKPGVYTRLPLFRDWIKENTGV: 32.3
MTSP-1 protease domain Q38K/I41G/F60eG/Y60gW/D96P/F97N/T98G/F99L/C122S/G151N/Q175L/Q192D (enzyme) VVGGTDADEGEWPWQVSLHALGKGHGCGASLISPNWLVSAAHCYIDDRGGRWSDPTQWTAFLGLHDQSQRSAPGVQERRLKRIISHPFFNPNGLDYDIALLELEKPAEYSSMVRPISLPDASHVFPAGKAIWVTGWGHTQYGGTNALILQKGEIRVINQTTCENLLPQLITPRMMCVGFLSGGVDSCDGDSGGPLSSVEADGRIFQAGVVSWGDGCAQRNKPGVYTRLPLFRDWIKENTGV: 62.7
MTSP-1 protease domain Q38H/I41S/D60bS/F60eQ/ins97aV/F97D/T98P/F99L/C122S/H143A/G151N/Q175L/Q192G (enzyme) VVGGTDADEGEWPWQVSLHALGHGHSCGASLISPNWLVSAAHCYIDSRGQRYSDPTQWTAFLGLHDQSQRSAPGVQERRLKRIISHPFFNDDVPLDYDIALLELEKPAEYSSMVRPISLPDASHVFPAGKAIWVTGWGATQYGGTNALILQKGEIRVINQTTCENLLPQLITPRMMCVGFLSGGVDSCGGDSGGPLSSVEADGRIFQAGVVSWGDGCAQRNKPGVYTRLPLFRDWIKENTGV: 26.3

Give measured EC50 hC3 cleavage for every item shown.
1. MTSP-1 protease domain Q38H/I41S/D60bT/F60eS/Y60gW/D96K/F97G/ins97aA/T98P/F99L/C122S/G151H/Q175L/Q192D (enzyme) VVGGTDADEGEWPWQVSLHALGHGHSCGASLISPNWLVSAAHCYIDTRGSRWSDPTQWTAFLGLHDQSQRSAPGVQERRLKRIISHPFFNKGAPLDYDIALLELEKPAEYSSMVRPISLPDASHVFPAGKAIWVTGWGHTQYGGTHALILQKGEIRVINQTTCENLLPQLITPRMMCVGFLSGGVDSCDGDSGGPLSSVEADGRIFQAGVVSWGDGCAQRNKPGVYTRLPLFRDWIKENTGV
2. MTSP-1 protease domain I41S/D60bY/ins97aV/T98N/C122S/Q192H (enzyme) VVGGTDADEGEWPWQVSLHALGQGHSCGASLISPNWLVSAAHCYIDYRGFRYSDPTQWTAFLGLHDQSQRSAPGVQERRLKRIISHPFFNDFVNFDYDIALLELEKPAEYSSMVRPISLPDASHVFPAGKAIWVTGWGHTQYGGTGALILQKGEIRVINQTTCENLLPQQITPRMMCVGFLSGGVDSCHGDSGGPLSSVEADGRIFQAGVVSWGDGCAQRNKPGVYTRLPLFRDWIKENTGV
3. MTSP-1 protease domain I41E/F99L/C122S/G151N/Q175G (enzyme) VVGGTDADEGEWPWQVSLHALGQGHECGASLISPNWLVSAAHCYIDDRGFRYSDPTQWTAFLGLHDQSQRSAPGVQERRLKRIISHPFFNDFTLDYDIALLELEKPAEYSSMVRPISLPDASHVFPAGKAIWVTGWGHTQYGGTNALILQKGEIRVINQTTCENLLPQGITPRMMCVGFLSGGVDSCQGDSGGPLSSVEADGRIFQAGVVSWGDGCAQRNKPGVYTRLPLFRDWIKENTGV
4. MTSP-1 protease domain Q38Y/I41S/D60bT/F60eR/Y60gW/D96M/F97N/T98G/F99L/C122S/G151N/Q192D (enzyme) VVGGTDADEGEWPWQVSLHALGYGHSCGASLISPNWLVSAAHCYIDTRGRRWSDPTQWTAFLGLHDQSQRSAPGVQERRLKRIISHPFFNMNGLDYDIALLELEKPAEYSSMVRPISLPDASHVFPAGKAIWVTGWGHTQYGGTNALILQKGEIRVINQTTCENLLPQQITPRMMCVGFLSGGVDSCDGDSGGPLSSVEADGRIFQAGVVSWGDGCAQRNKPGVYTRLPLFRDWIKENTGV
5. MTSP-1 protease domain Q38K/I41G/Y60gW/F99L/C122S/G151N/Q192A (enzyme) VVGGTDADEGEWPWQVSLHALGKGHGCGASLISPNWLVSAAHCYIDDRGFRWSDPTQWTAFLGLHDQSQRSAPGVQERRLKRIISHPFFNDFTLDYDIALLELEKPAEYSSMVRPISLPDASHVFPAGKAIWVTGWGHTQYGGTNALILQKGEIRVINQTTCENLLPQQITPRMMCVGFLSGGVDSCAGDSGGPLSSVEADGRIFQAGVVSWGDGCAQRNKPGVYTRLPLFRDWIKENTGV

1.43
8.1
20
56.7
9.96

These data points were gathered from patent US20240018502A1.
